experiment: in vitro; conditions: human, hela cells, % viability
Recorded viability at 28.5 h, 10 µM by entry
All answers are understood in %, so give the number only.

Field: example entries. Status: answers known.
| COMPOUND | viability at 28.5 h, 10 µM [%] |
| --- | --- |
| O=C(NCc1ccccc1)c1cnc2n(c1=O)CCS2 | 79.7 |
| CC(=O)Nc1ccc(S(=O)(=O)Nc2cccc(C(=O)O)c2)cc1 | 98.7 |
| Cc1nc2c(OCCOc3ccccc3)cccn2c1N(C)CC1CC1 | 96.8 |
| Cc1cc(C)n(CCCN(C)Cc2c(C)nc3ccccn23)n1 | 90 |
| CC(=O)c1cc(C(=O)N2CCC(O)(c3cccc(C)c3)CC2)cs1 | 92.8 |

Shift focus to the following entry.
Q: Name the recorded viability at 28.5 h, 10 µM for CC12CCC(C(=O)O)(c3nc4cc([N+](=O)[O-])ccc4nc31)C2(C)C (centres unmarked) [CBK266577K] .
A: 95.6
